# Assay type: in vivo, human
# run-conditions: human, plasma, oral, Vd/F (=Vc/F+ Vp/F), final model; standardized to 48 kg LBM and 95 mL/min CLCR
reported-property: Vd/F (L)
# unit: L | format: bare number

Q: Please indicate Vd/F recorded for `C[C@]1(c2nc3c(C(N)=O)cccc3[nH]2)CCCN1`
Result: 147

All figures here come from paper PMC5503785.
